B1: library; a variant is named by its letters at N, in order (parent)
chain: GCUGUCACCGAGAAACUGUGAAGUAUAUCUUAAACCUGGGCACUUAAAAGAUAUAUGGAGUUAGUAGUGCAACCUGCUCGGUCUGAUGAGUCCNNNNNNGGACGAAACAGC

variants of: B1; experiment: normalized RNA/DNA level with ligand (relative to sTRSVctl = 100) (log10 (% of sTRSVctl)); HEK293T; ligand: cyclic di-GMP (c-di-GMP-II aptamer); ligand concentration (+) RNA-Seq: 1 mM; higher = less ribozyme self-cleavage, higher mRNA level; conditions: reporter: mCherry (pCS4076), ligand present: yes
The variants listed here are annotated with their normalized RNA/DNA level with ligand (log10).
Reported metric: normalized RNA/DNA level with ligand (log10)

Alteration | Experimental value
GGUACA | 1.73
CUACAU | 1.72
CUCCCC | 1.9
UAUAAA | 1.79
AGGUUA | 1.64
GGCGCA | 1.92
UCAUCC | 1.9
CUGUCC | 1.92
AUAAGA | 1.62
CUCGAU | 1.86
AAGGUG | 1.69
UAAUGG | 1.81
CUGGAU | 1.73
AUUUAC | 1.88
GCUCUC | 1.81
ACUAUC | 1.79
GAGAAU | 1.76
AUGCGC | 1.86
CUUUUC | 1.85
GGACCU | 1.85
CACAUG | 1.84
UUCACU | 1.85
